target: human TRPV1 (Homo sapiens (Human), UniProt Q8NER1); assay: Acid Activation Assay (pH 5.0, intracellular Ca2+, FLIPR); format: cell-based; details: percentage of the maximal pH 5.0-induced response remaining; recombinant HEK293 hTRPV1 cells; maximum concentration tested 37.5 μM
Sequence (Q8NER1 whole entry): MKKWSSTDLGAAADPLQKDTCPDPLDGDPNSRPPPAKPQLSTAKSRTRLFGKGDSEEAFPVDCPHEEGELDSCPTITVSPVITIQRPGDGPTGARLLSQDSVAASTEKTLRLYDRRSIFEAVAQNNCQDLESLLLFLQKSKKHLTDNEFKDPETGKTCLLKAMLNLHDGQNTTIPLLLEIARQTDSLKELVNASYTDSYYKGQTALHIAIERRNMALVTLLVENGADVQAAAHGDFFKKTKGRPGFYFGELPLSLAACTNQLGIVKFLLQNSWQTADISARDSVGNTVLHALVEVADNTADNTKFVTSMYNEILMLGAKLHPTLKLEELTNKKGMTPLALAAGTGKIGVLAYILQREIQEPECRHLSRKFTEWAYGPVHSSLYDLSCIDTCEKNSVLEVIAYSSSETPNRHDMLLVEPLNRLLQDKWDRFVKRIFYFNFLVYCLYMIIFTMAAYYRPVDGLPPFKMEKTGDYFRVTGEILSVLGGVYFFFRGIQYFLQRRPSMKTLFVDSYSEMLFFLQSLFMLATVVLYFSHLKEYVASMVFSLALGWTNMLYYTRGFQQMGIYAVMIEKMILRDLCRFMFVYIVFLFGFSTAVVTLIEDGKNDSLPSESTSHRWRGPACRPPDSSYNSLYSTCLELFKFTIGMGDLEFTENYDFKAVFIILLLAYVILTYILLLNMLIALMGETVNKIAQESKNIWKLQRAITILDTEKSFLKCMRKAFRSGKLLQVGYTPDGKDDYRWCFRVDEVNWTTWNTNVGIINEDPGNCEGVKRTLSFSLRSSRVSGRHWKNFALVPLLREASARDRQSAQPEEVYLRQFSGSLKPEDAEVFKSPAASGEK
endpoint-name: human TRPV1 H^+ (max % remain) (%)
Field format: number, assumed %, no unit text.

Consider the reported human TRPV1 H^+ (max % remain) for these molecules:
molecule	data-value
COCCN(C)C1Cc2ccc(NC(=O)N[C@@H]3CC(C)(C)Oc4cc(F)ccc43)cc2NC1=O (stereo partly shown)	26
Cn1c(=O)ccc2c(NC(=O)N[C@@H]3C[C@](C)(C(F)(F)F)Oc4ccccc43)cccc21	45
CCC1(CC)C[C@@H](NC(=O)Nc2ccc3c(c2)NC(=O)CC3)c2cccc(F)c2O1	30
CC1(C)C[C@@H](NC(=O)Nc2ccc3c(c2)NC(=O)CO3)c2cccc(F)c2O1	95
CCC1(CC)C[C@@H](NC(=O)Nc2ccc3c(c2)N(C)C(=O)CC3)c2cccc(F)c2O1	89
C[C@]1(C(F)F)C[C@@H](NC(=O)Nc2ccc3c(c2)NC(=O)CO3)c2ccc(Cl)cc2O1	87
O=C(Nc1ccc2c(c1)NC(=O)N(CCO)C2)N[C@@H]1CCOc2c1cccc2C(F)(F)F	1
CN1C(=O)CCc2ccc(NC(=O)N[C@@H]3CC(CF)(CF)Oc4ccccc43)cc21	68

Task: GET /values?readout=human TRPV1 H^+ (max % remain)&item= CN1Cc2ccc(NC(=O)N[C@@H]3CC(CF)(CF)Oc4cc(Cl)ccc43)cc2NC1=O
Result: 16

Task: Request: CN1Cc2ccc(NC(=O)N[C@@H]3CC(CF)(CF)Oc4ccccc43)cc2NC1=O
Result: 57

Task: Request: CN1Cc2ccc(NC(=O)N[C@@H]3CCOc4c3cccc4C(F)(F)F)cc2NC1=O
Result: 21

Task: Request: CC1(C)C[C@@H](NC(=O)Nc2ccc3c(c2)NC(=O)C(N2CCCOCC2)C3)c2ccc(F)cc2O1 (stereo partly shown)
Result: 2

Task: Request: CCC1(CC)C[C@@H](NC(=O)Nc2ccc3c(c2)NC(=O)N(CCO)C3)c2cccc(F)c2O1
Result: 3
